Catalogue of compounds with associated TD50 at 240 h
- method_notes: toxicity value: 50% inhibition of weight increase of test animal (Sarcoma 180 tumor-transplanted mice)
- Assay type: in vivo, mouse
- run_parameters: mouse, sarcoma 180 bearing mice; Table 1-a; oral, once a day, 7 days, male ICR/JCL mice; read-out: Toxicity value (B) Administration amount of test compound at which weight increase of test animal is inhibited by 50% compared with that of control group
value_kind: TD50 at 240 h (mg/kg)

1) Cc1ccccc1CO[C@H]1C[C@H](n2cc(C(F)(F)F)c(=O)[nH]c2=O)O[C@@H]1CO :: 57
2) Cc1ccccc1COC[C@H]1O[C@@H](n2cc(C(F)(F)F)c(=O)[nH]c2=O)C[C@@H]1O :: 65
3) Cc1cccc(CO[C@H]2C[C@H](n3cc(C(F)(F)F)c(=O)[nH]c3=O)O[C@@H]2CO)c1 :: 45
4) COc1ccc(COC[C@H]2O[C@@H](n3cc(C(F)(F)F)c(=O)[nH]c3=O)C[C@@H]2O)cc1 :: 51
5) O=c1[nH]c(=O)n([C@H]2C[C@H](OCc3ccc(Cl)cc3)[C@@H](CO)O2)cc1C(F)(F)F :: 17
6) O=c1c(C(F)(F)F)cn([C@H]2C[C@H](O)[C@@H](COCc3ccccc3)O2)c(=O)n1C1CCCO1 (stereo partly drawn) :: 30
7) Cc1cccc(COC[C@H]2O[C@@H](n3cc(C(F)(F)F)c(=O)[nH]c3=O)C[C@@H]2O)c1 :: 41
8) COc1ccc(CO[C@H]2C[C@H](n3cc(C(F)(F)F)c(=O)[nH]c3=O)O[C@@H]2CO)cc1 :: 60
9) O=c1[nH]c(=O)n([C@H]2C[C@H](O)[C@@H](COCc3ccc(Cl)cc3)O2)cc1C(F)(F)F :: 22

###

// reported TD50 at 240 h per item
- method_notes: toxicity value: 50% inhibition of weight increase of test animal (Sarcoma 180 tumor-transplanted mice)
- Format: in vivo, mouse
- run_parameters: mouse, sarcoma 180 bearing mice; Table 1-b; oral, once a day, 7 days, male ICR/JCL mice; read-out: Toxicity value (B) Administration amount of test compound at which weight increase of test animal is inhibited by 50% compared with that of control group
value_kind: TD50 at 240 h (mg/kg)

1) O=C(c1ccccc1)n1c(=O)c(C(F)(F)F)cn([C@H]2C[C@H](OCc3ccccc3)[C@@H](CO)O2)c1=O [Compound 28] :: 35
2) O=C(c1ccccc1)n1c(=O)c(C(F)(F)F)cn([C@H]2C[C@H](O)[C@@H](COCc3ccccc3)O2)c1=O [Compound 27] :: 35
3) CCCCOC[C@H]1O[C@@H](n2cc(C(F)(F)F)c(=O)n(C(=O)c3ccccc3)c2=O)C[C@@H]1O [Compound 26] :: 74
4) CCO[C@H]1C[C@H](n2cc(C(F)(F)F)c(=O)[nH]c2=O)O[C@@H]1CO [Compound 31] :: 30
5) O=c1[nH]c(=O)n([C@H]2C[C@H](O)[C@@H](CO)O2)cc1C(F)(F)F [F3 TdR, 2'-Deoxy-5-trifluoromethyl uridine, reference compound] :: 40
6) COC[C@H]1O[C@@H](n2cc(C(F)(F)F)c(=O)[nH]c2=O)C[C@@H]1O [Compound 29] :: 72
7) O=c1[nH]c(=O)n([C@H]2C[C@H](O)[C@@H](COCc3ccccc3)O2)cc1C(F)(F)F [Compound 32] :: 34
8) CCOC[C@H]1O[C@@H](n2cc(C(F)(F)F)c(=O)n(C(=O)c3ccccc3)c2=O)C[C@@H]1O [Compound 24] :: 36
9) CCO[C@H]1C[C@H](n2cc(C(F)(F)F)c(=O)n(C(=O)c3ccccc3)c2=O)O[C@@H]1CO [Compound 25] :: 31
10) CCOC[C@H]1O[C@@H](n2cc(C(F)(F)F)c(=O)[nH]c2=O)C[C@@H]1O [Compound 30] :: 32
11) O=c1[nH]c(=O)n([C@H]2C[C@H](OCc3ccccc3)[C@@H](CO)O2)cc1C(F)(F)F [Compound 33] :: 32
